Molecular target: DNA topoisomerase 1 (Homo sapiens) (UniProt P11387)
Sequence (P11387 whole entry): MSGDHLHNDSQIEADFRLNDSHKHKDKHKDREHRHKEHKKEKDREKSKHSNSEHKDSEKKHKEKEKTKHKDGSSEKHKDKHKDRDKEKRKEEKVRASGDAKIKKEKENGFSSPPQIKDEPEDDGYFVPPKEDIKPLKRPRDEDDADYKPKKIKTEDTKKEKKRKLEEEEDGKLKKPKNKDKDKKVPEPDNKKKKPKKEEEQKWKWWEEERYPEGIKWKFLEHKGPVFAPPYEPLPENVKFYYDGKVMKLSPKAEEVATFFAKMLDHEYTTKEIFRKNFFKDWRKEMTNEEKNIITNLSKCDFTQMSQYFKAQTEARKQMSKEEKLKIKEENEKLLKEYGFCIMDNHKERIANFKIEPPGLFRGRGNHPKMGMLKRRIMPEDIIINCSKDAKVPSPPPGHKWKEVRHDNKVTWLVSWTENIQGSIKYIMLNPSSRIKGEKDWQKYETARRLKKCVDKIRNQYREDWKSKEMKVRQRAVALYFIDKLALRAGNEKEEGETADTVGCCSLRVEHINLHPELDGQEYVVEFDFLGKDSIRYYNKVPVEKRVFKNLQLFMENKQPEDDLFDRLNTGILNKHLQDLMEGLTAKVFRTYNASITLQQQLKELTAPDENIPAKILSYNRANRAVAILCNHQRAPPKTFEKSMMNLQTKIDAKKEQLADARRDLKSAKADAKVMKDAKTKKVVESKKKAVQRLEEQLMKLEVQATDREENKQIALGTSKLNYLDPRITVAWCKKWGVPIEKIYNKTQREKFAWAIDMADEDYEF
Assay: Inhibition of recombinant DNA topoisomerase 1 (unknown origin) assessed as inhibition of topoisomerase 1-mediated DNA cleavage at 1 uM after 20 mins by SDS-PAGE analysis
Active and inactive are the calls of the source. The calls are words filed in the database; no cut-off is given here.
Classes used: Y = active, N = inactive

{"compound structure string": "Clc1ccc(-c2cnn3c2nc(NCCCc2ncc[nH]2)c2ccccc23)cc1", "category": "N"}
{"compound structure string": "CCN(CC)CCOc1nc2c(-c3ccc(Cl)cc3)cnn2c2ccccc12", "category": "N"}
{"compound structure string": "COc1cc2c3c(n(CCCNCCO)c(=O)c2cc1OC)-c1cc2c(cc1C3=O)OCO2", "category": "Y"}
{"compound structure string": "CN(C)CCCn1c(=O)c2ccccc2n2nc(-c3ccccc3)cc12", "category": "N"}
{"compound structure string": "CN(C)CCCOc1nc2c(-c3ccc(C(F)(F)F)cc3)cnn2c2ccccc12", "category": "N"}

###

Target: DNA topoisomerase 1 (Homo sapiens) (UniProt P11387)
Assay: Inhibition of recombinant DNA topoisomerase 1 (unknown origin) assessed as inhibition of topoisomerase 1-mediated DNA cleavage at 1 to 100 uM after 20 mins by SDS-PAGE analysis relative to control
The source made the active and inactive calls. No cut-off for these calls is given here.
measured endpoint: Top1 cleavage inhibition (active/inactive)

{"compound structure string": "CN(C)CCOc1nc2c(-c3ccccc3)cnn2c2ccccc12", "result": "Active"}
{"compound structure string": "CCN(CC)CCOc1nc2c(-c3ccc(Cl)cc3)cnn2c2ccccc12", "result": "Active"}
{"compound structure string": "O=c1c2ccccc2n2nc(-c3ccccc3)cc2n1CCCc1ncc[nH]1", "result": "inactive"}
{"compound structure string": "CN(C)CCCOc1nc2c(-c3ccc(C(F)(F)F)cc3)cnn2c2ccccc12", "result": "inactive"}
{"compound structure string": "CN(C)CCOc1nc2cc(-c3ccccc3)nn2c2ccccc12", "result": "Active"}
{"compound structure string": "CCN(CC)CCNc1nc2c(-c3ccc(C(F)(F)F)cc3)cnn2c2ccccc12", "result": "Active"}

###

Molecular target: DNA topoisomerase 1 (Homo sapiens)
Assay: Inhibition of recombinant DNA topoisomerase 1 (unknown origin) assessed as inhibition of topoisomerase 1-mediated DNA cleavage at 1 to 100 uM after 20 mins by SDS-PAGE analysis relative to control
Active and inactive are the calls of the source. No cut-off for these calls is given here.
Classes used: active, inactive

{"compound structure string": "CN(C)CCCNc1nc2c(-c3ccc(Cl)cc3)cnn2c2ccccc12", "test system": "DNA topoisomerase 1 (Homo sapiens)", "category": "active"}
{"compound structure string": "CCN(CC)CCNc1nc2c(-c3ccc(OC)cc3)cnn2c2ccccc12", "test system": "DNA topoisomerase 1 (Homo sapiens)", "category": "active"}
{"compound structure string": "CCN(CC)CCNc1nc2c(-c3ccc(Cl)cc3)cnn2c2ccccc12", "test system": "DNA topoisomerase 1 (Homo sapiens)", "category": "active"}
{"compound structure string": "CN(C)CCOc1nc2c(-c3ccc(C(F)(F)F)cc3)cnn2c2ccccc12", "test system": "DNA topoisomerase 1 (Homo sapiens)", "category": "active"}
{"compound structure string": "CN(C)CCOc1nc2c(-c3ccc(Cl)cc3)cnn2c2ccccc12", "test system": "DNA topoisomerase 1 (Homo sapiens)", "category": "active"}
{"compound structure string": "COc1ccc(-c2cnn3c2nc(OCCN(C)C)c2ccccc23)cc1", "test system": "DNA topoisomerase 1 (Homo sapiens)", "category": "active"}
{"compound structure string": "CN(C)CCCOc1nc2cc(-c3ccccc3)nn2c2ccccc12", "test system": "DNA topoisomerase 1 (Homo sapiens)", "category": "inactive"}
{"compound structure string": "COc1ccc(-c2cnn3c2nc(OCCCN(C)C)c2ccccc23)cc1", "test system": "DNA topoisomerase 1 (Homo sapiens)", "category": "active"}
{"compound structure string": "CN(C)CCn1c(=O)c2ccccc2n2nc(-c3ccccc3)cc12", "test system": "DNA topoisomerase 1 (Homo sapiens)", "category": "active"}
{"compound structure string": "CCN(CC)CCNc1nc2cc(-c3ccccc3)nn2c2ccccc12", "test system": "DNA topoisomerase 1 (Homo sapiens)", "category": "inactive"}
{"compound structure string": "CCN(CC)CCOc1nc2c(-c3ccc(OC)cc3)cnn2c2ccccc12", "test system": "DNA topoisomerase 1 (Homo sapiens)", "category": "active"}

###

Molecular target: DNA topoisomerase 1 (Homo sapiens) (UniProt P11387)
Experiment: Inhibition of recombinant DNA topoisomerase 1 (unknown origin) assessed as inhibition of topoisomerase 1-mediated DNA cleavage at 1 to 100 uM after 20 mins by SDS-PAGE analysis relative to control
Activity calls are given as the source filed them. The rule behind the calls is not given here.
Outcome codes: YES for active, NO for inactive

{"compound structure string": "COc1ccc(-c2cnn3c2nc(NCCN(C)C)c2ccccc23)cc1", "test system": "DNA topoisomerase 1 (Homo sapiens) (UniProt P11387)", "category": "YES"}
{"compound structure string": "CCN(CC)CCNc1nc2c(-c3ccccc3)cnn2c2ccccc12", "test system": "DNA topoisomerase 1 (Homo sapiens) (UniProt P11387)", "category": "YES"}
{"compound structure string": "FC(F)(F)c1ccc(-c2cnn3c2nc(NCCCc2ncc[nH]2)c2ccccc23)cc1", "test system": "DNA topoisomerase 1 (Homo sapiens) (UniProt P11387)", "category": "NO"}
{"compound structure string": "CN(C)CCNc1nc2c(-c3ccc(C(F)(F)F)cc3)cnn2c2ccccc12", "test system": "DNA topoisomerase 1 (Homo sapiens) (UniProt P11387)", "category": "YES"}
{"compound structure string": "CN(C)CCCOc1nc2c(-c3ccc(Cl)cc3)cnn2c2ccccc12", "test system": "DNA topoisomerase 1 (Homo sapiens) (UniProt P11387)", "category": "YES"}
{"compound structure string": "CN(C)CCCOc1nc2c(-c3ccccc3)cnn2c2ccccc12", "test system": "DNA topoisomerase 1 (Homo sapiens) (UniProt P11387)", "category": "YES"}
